target-of-assay: GPR139 (Homo sapiens, UniProt Q6DWJ6)
Construct: host or cells: CHO-k1
assay-summary: Fluo-4 calcium mobilization assay, agonist mode, concentration-response curves in CHO-GPR139 cells
Format: cell-based
measurement-parameters: CHO-GPR139 cells
recorded-endpoint: pEC50 ± S.E.M.

> print(dat)
                                   molecule                        target.of.assay  recorded.endpoint  number
1  CC(C)OCCCNC(=O)NC(C)c1ccccc1Cl (stereo not drawn)  GPR139 (Homo sapiens, UniProt Q6DWJ6)     pEC50 ± S.E.M.    6.22
2  COc1ccc(OC)c(C(=O)CN2C(=O)NC(C)(c3ccc4c(c3)OCO4)C2=O)c1 (stereo not drawn)  GPR139 (Homo sapiens, UniProt Q6DWJ6)     pEC50 ± S.E.M.    6.27
3  CC(C)COCCCNC(=O)NC(C)c1ccc(Br)cc1 (stereo not drawn)  GPR139 (Homo sapiens, UniProt Q6DWJ6)     pEC50 ± S.E.M.    6.54

---

target-of-assay: GPR139 (Homo sapiens)
Construct: host or cells: CHO-k1
assay-summary: Fluo-4 calcium mobilization assay, agonist mode, concentration-response curves in CHO-GPR139 cells
Type: cell-based
measurement-parameters: CHO-GPR139 cells; normalized to buffer (0%) and 8 μM 1a (100%)
recorded-endpoint: Emax ± S.E.M.

> print(dat)
                                   molecule   result
1  C=C(C)CN(CC)C(=O)CN1C(=O)NC(C)(c2cccc3ccccc23)C1=O (stereo not drawn) [AC230]  89 ± 1%
2  COc1ccc(OC)c(C(=O)CN2C(=O)NC(C)(c3ccc4c(c3)OCO4)C2=O)c1 (stereo not drawn) [AC137]  92 ± 3%
3  CC1CC(C)CN(C(=O)CN2C(=O)NC(C)(c3cccc4ccccc34)C2=O)C1 (stereo not drawn) [AC186]  89 ± 5%

---

target-of-assay: GPR139 (Homo sapiens)
Construct: host or cells: CHO-k1
Sequence (Q6DWJ6 1-353): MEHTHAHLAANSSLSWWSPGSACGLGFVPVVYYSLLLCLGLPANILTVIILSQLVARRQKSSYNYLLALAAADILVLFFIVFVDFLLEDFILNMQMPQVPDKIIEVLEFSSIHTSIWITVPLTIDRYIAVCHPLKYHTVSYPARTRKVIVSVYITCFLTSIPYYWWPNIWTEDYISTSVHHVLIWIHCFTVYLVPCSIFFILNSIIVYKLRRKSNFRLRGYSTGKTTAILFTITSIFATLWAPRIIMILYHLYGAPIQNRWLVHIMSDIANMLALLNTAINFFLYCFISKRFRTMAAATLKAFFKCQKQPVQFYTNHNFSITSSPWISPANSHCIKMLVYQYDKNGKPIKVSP
assay-summary: Fluo-4 calcium mobilization assay, agonist mode, concentration-response curves in CHO-GPR139 cells
Assay type: cell-based
measurement-parameters: CHO-GPR139 cells
recorded-endpoint: pEC50 ± S.E.M.

> print(dat)
                                   compound  recorded.endpoint  number
1  CC1(c2ccc3c(c2)OCCO3)NC(=O)N(CC(=O)c2c[nH]c3ccccc23)C1=O (stereo not drawn)     pEC50 ± S.E.M.    6.34
2  CC1(c2cccc3ccccc23)NC(=O)N(CC(=O)c2cc3ccccc3o2)C1=O (stereo not drawn)     pEC50 ± S.E.M.    6.47
3  CCc1cccc2c(C(=O)CN3C(=O)NC(C)(c4ccc5c(c4)OCO5)C3=O)c[nH]c12 (stereo not drawn)     pEC50 ± S.E.M.    6.42
4  O=C(NCCCc1nc2ccccc2[nH]1)NC1CCSc2ccc(F)cc21 (stereo not drawn)     pEC50 ± S.E.M.    6.11
5  CC1(c2ccc3c(c2)OCO3)NC(=O)N(CC(=O)N2CCc3ccccc32)C1=O (stereo not drawn)     pEC50 ± S.E.M.    6.71
6  CC1(c2ccc3c(c2)OCO3)NC(=O)N(CC(=O)c2ccc(Cl)s2)C1=O (stereo not drawn)     pEC50 ± S.E.M.    6.09
7  CC1(c2ccc3c(c2)OCO3)NC(=O)N(CC(=O)N2CCCc3ccccc32)C1=O (stereo not drawn)     pEC50 ± S.E.M.    6.47
8  CC1(c2ccc3c(c2)OCO3)NC(=O)N(CC(=O)N2CCCCC2)C1=O (stereo not drawn)     pEC50 ± S.E.M.    6.12
9  CC1(c2cccc3ccccc23)NC(=O)N(CC(=O)c2ccc3c(c2)OCO3)C1=O (stereo not drawn)     pEC50 ± S.E.M.    6.42
